target: erk1 (Homo sapiens, UniProt P27361)
Sequence (P27361 whole entry, species assumed): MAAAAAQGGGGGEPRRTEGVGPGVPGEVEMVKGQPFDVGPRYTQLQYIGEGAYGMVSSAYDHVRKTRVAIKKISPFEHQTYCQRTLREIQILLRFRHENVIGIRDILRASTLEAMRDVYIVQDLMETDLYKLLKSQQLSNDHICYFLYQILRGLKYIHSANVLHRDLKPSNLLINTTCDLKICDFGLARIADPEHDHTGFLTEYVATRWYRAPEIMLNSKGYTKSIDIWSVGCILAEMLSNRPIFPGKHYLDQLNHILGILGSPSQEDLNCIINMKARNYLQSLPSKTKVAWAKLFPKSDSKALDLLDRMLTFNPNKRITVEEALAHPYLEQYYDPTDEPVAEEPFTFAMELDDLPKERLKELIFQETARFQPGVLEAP
READOUT KIND: IC50 (µM)
The reply should contain only the number, in µM.

Ask: Tell me its IC50 given CCCCc1c(-c2ccc(O)cc2)[nH]c2nccnc12 [39 (RP107)] as the entry.
Result: 18

* * *

biological target: protein kinase C η (Homo sapiens)
Sequence (P24723 whole entry): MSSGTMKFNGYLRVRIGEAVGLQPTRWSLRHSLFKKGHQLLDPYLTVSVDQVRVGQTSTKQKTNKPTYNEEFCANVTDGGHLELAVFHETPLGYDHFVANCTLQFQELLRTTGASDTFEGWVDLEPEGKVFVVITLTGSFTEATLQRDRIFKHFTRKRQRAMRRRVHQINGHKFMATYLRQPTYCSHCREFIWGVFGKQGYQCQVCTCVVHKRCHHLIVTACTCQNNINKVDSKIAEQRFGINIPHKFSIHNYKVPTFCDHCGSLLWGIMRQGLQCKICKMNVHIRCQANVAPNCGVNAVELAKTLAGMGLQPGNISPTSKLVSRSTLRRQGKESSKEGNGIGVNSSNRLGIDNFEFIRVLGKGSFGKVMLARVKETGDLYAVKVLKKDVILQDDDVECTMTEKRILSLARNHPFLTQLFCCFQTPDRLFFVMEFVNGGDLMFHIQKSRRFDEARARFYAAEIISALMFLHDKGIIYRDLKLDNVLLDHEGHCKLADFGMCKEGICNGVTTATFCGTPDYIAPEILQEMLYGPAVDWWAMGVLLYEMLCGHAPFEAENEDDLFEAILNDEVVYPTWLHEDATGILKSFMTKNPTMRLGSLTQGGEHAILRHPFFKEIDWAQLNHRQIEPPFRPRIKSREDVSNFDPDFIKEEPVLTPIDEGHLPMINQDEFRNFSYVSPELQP
READOUT KIND: IC50

Ask: Tell me its IC50 given CCCCc1c(-c2ccc(O)cc2)[nH]c2nccnc12 [39 (RP107)] as the entry.
Result: > 100 µM

* * *

biological target: c-Jun N-terminal kinase; experiment: Kinase selectivity panel; settings: 15 μM ATP
READOUT KIND: IC50

Ask: Tell me its IC50 given CCCCc1c(-c2ccc(O)cc2)[nH]c2nccnc12 [39 (RP107)] as the entry.
Result: 3.3 to 10 µM
